Target Or System: Metabotropic glutamate receptor 2 (Homo sapiens)
Assay Info: Agonist activity at human mGlu2 receptor expressed in HEK293 cells co-expressing Gqo5 assessed as increase in intracellular Ca2+ mobilization incubated for 1 hr by Fluo-4 dye based fluorescence assay
Type: functional, cell-based
Conditions Used: read-out: EC50
Attribute Measured: EC50 (nM)

COc1c(OCCOCCOCCOCCOCCOCCOCCOCCOc2ccc(C3CCN(c4ccn5c(CC6CC6)nnc5c4Cl)CC3)cc2)cccc1C(=O)C1CCN(CCc2ccc(F)cc2)CC1; 1600
COc1c(OCCOCCOCCOCCOCCOCCOCCOCCOCCOCCOc2ccc(C3CCN(c4ccn5c(CC6CC6)nnc5c4Cl)CC3)cc2)cccc1C(=O)C1CCN(CCc2ccc(F)cc2)CC1; 1200
COc1c(OCCOCCOCCOc2ccc(C3CCN(c4ccn5c(CC6CC6)nnc5c4Cl)CC3)cc2)cccc1C(=O)C1CCN(CCc2ccc(F)cc2)CC1; 900

(A) COc1c(OCCOCCOCCOCCOCCOCCOCCOCCOCCOCCOCCOCCOc2ccc(C3CCN(c4ccn5c(CC6CC6)nnc5c4Cl)CC3)cc2)cccc1C(=O)C1CCN(CCc2ccc(F)cc2)CC1
(B) COc1c(OCCOCCOCCOCCOc2ccc(C3CCN(c4ccn5c(CC6CC6)nnc5c4Cl)CC3)cc2)cccc1C(=O)C1CCN(CCc2ccc(F)cc2)CC1
## Task Compare reported EC50 values for A and B . Which is lower? Let me know the label of the one you choose.
## Result B
(B: 550 nM, A: 2500 nM)

====

Target Or System: Metabotropic glutamate receptor 2 (Homo sapiens, UniProt Q14416)
Sequence (Q14416 whole entry): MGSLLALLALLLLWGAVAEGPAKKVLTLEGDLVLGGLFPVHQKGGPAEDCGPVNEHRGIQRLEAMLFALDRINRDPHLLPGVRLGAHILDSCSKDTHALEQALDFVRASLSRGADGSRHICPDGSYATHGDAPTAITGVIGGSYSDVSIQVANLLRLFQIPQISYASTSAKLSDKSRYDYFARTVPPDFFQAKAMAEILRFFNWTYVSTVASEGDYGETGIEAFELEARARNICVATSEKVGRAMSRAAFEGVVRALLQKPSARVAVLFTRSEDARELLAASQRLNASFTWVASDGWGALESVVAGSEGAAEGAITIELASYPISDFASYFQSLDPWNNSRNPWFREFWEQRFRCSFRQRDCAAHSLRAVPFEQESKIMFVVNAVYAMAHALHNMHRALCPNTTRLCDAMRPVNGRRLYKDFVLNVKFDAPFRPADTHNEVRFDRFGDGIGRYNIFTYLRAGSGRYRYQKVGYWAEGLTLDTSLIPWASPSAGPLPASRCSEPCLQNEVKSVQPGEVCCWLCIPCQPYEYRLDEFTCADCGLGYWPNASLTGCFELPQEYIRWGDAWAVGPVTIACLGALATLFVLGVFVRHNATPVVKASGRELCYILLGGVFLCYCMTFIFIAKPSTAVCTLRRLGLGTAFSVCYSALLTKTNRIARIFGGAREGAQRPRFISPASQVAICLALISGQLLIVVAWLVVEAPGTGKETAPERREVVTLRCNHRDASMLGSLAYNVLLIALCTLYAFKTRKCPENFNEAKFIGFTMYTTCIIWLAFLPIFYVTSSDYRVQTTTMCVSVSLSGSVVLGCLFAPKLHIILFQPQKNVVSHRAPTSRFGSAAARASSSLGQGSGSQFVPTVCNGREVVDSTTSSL
Assay Info: Agonist activity at human mGlu2 receptor expressed in HEK293 cells co-expressing Gqo5 assessed as increase in intracellular Ca2+ mobilization incubated for 1 hr by Fluo-4 dye based fluorescence assay
Format: functional, cell-based
Conditions Used: read-out: EC50
pEC50: −log10 of the molar value.
Attribute Measured: pEC50

(A) COc1c(OCCOCCOCCOCCOCCOc2ccc(C3CCN(c4ccn5c(CC6CC6)nnc5c4Cl)CC3)cc2)cccc1C(=O)C1CCN(CCc2ccc(F)cc2)CC1
(B) COc1ccccc1C1CCN(c2ccn3c(CC4CC4)nnc3c2Cl)CC1
## Task Given A and B , report the one with the higher recorded pEC50. Let me know the label of the one you choose.
## Result B

====

Target Or System: Metabotropic glutamate receptor 2 (Homo sapiens)
Assay Info: Positive modulator activity at human mGlu2 receptor expressed in HEK293 cells co-expressing Gqo5 assessed as increase in intracellular Ca2+ mobilization incubated for 1 hr in presence of EC20 glutamate by Fluo-4 dye based fluorescence assay
Type: functional, cell-based
Conditions Used: read-out: EC50
pEC50: −log10 of the molar value.
Attribute Measured: pEC50

COc1c(OCCOCCOCCOCCOCCOCCOc2ccc(C3CCN(c4ccn5c(CC6CC6)nnc5c4Cl)CC3)cc2)cccc1C(=O)C1CCN(CCc2ccc(F)cc2)CC1; 6.28

(a) COc1c(OCCOCCOCCOCCOCCOCCOCCOCCOc2ccc(C3CCN(c4ccn5c(CC6CC6)nnc5c4Cl)CC3)cc2)cccc1C(=O)C1CCN(CCc2ccc(F)cc2)CC1
(b) COc1ccccc1C1CCN(c2ccn3c(CC4CC4)nnc3c2Cl)CC1
## Task Given a and b , report the one with the higher recorded pEC50. Let me know the label of the one you choose.
## Result b
